Documented IC50 across a set of molecules
Tested on: breast cancer MCF-7 cell line
Assay: MTT cytotoxicity against breast cancer MCF-7 cell line
Format: cell-based
Details: MTT assay, 24 h drug treatment
measured_metric: IC50 (µM)

# molecule, measured_metric, unit_info, recorded_measurement
measured = [
    ("COc1cccc(CNC(=O)C(=Cc2ccco2)NC(=O)c2cc(OC)c(OC)c(OC)c2)c1", "IC50", "µM", 3.03),
    ("N.N.[Cl][Pt][Cl] [Cisplatin, reference compound]", "IC50", "µM", 1.02),
]

---

Test system: breast cancer MCF-7 cell line
Assay: MTT cytotoxicity against breast cancer MCF-7 cell line
Type: cell-based
Conditions: Homo sapiens, MCF7, 24 h, MTT assay, 24 h drug treatment
measured_metric: IC50 (µM)

# smiles_input, recorded_measurement
measured = [
    ("COc1cc(C(=O)NC(=Cc2ccco2)C(=O)Nc2ccc(O)cc2)cc(OC)c1OC", 18.4),
    ("COc1cc(C(=O)NC(=Cc2ccco2)C(=O)Nc2ccccc2C)cc(OC)c1OC", 27.3),
    ("COc1ccc(NC(=O)C(=Cc2ccco2)NC(=O)c2cc(OC)c(OC)c(OC)c2)cc1O", 2.11),
]

Each recorded value in this set is attributed to paper PMC8540948.
